- measurement protocol: method code SF, from Hansch, C. & Leo, A. (1987). Log P database [Dataset]. Pomona College Medicinal Chemistry Project.
- setup conditions: pH 7.0
Each entry belongs to exactly one class, chosen by where its logD falls: low group = under 1, middle group = from 1 up to 2, high group = 2 and over

{"columns": ["substance smiles", "class label"],
 "data": [
  ["CC(=O)c1cccc(C(C)=O)c1", "middle group"],
  ["CC(=O)c1ccc(C(C)=O)cc1", "middle group"],
  ["CN(C)c1ccc([N+](=O)[O-])cc1", "high group"],
  ["CC(=O)c1cccc(F)c1", "middle group"]
]}

Continue with the next molecule.
Query: Hi, small favor: classify `Brc1ccc2ncccc2c1` by its logD when you get a moment.
Response: high group

====

- measurement protocol: method code SF, from Hansch, C. & Leo, A. (1987). Log P database [Dataset]. Pomona College Medicinal Chemistry Project.
Rule: 1 for logP not less than 2, -1 for anything less.

{"columns": ["substance smiles", "class label"],
 "data": [
  ["O=NN(Cc1ccccc1)c1ccccc1", 1],
  ["CCCCNC(N)=O", -1],
  ["O=S1(=O)NC(CCl)=Nc2cc(Cl)ccc21", -1],
  ["COCC(=O)Nc1ccc(Cl)c(Cl)c1", 1],
  ["NC(=O)c1ccccc1F", -1]
]}

Query: Record `O=c1cnc2ccccc2[nH]1` ; criterion: logP no lower than 2. Met?
Response: -1

Query: Please tell me: is the molecule `CC(=O)Oc1ccc(N=C2C=CC(=O)C=C2)cc1` at or over 2 in terms of logP?
Response: -1

Query: Reported logP at or above 2? `CC(=O)Oc1cccc(F)c1`
Response: -1

Query: Hello, I need to know if `Cc1ccc(Cc2c[nH]c(NCCCCc3ccc(Br)cc3C)nc2=O)cn1` has measured logP not below 2. Thanks!
Response: 1

Query: Check if logP >= 2 (inclusive). Item: `CCS(=O)(=O)c1ccc(S(N)(=O)=O)c2ccccc12`
Response: -1

Query: Has `Cn1c(=O)ccc2ccccc21` a recorded logP greater than or equal to 2?
Response: -1

Query: Does the molecule `CCOCCOC(=O)C(C#N)=C(CC)Nc1ccc(N)cc1` have recorded logP that is 2 or more?
Response: 1

Query: Has `O=[N+]([O-])c1ccc2ncccc2c1` a recorded logP greater than or equal to 2?
Response: -1

====

- measurement protocol: method code SF, from Hansch, C. & Leo, A. (1987). Log P database [Dataset]. Pomona College Medicinal Chemistry Project.
assay readout: logP
Format: numeric value only, no unit, no commentary.

Please review the entries below; each comes with its answer.
{"columns": ["molecule", "logP"],
 "data": [
  ["COc1cccc2c1C(=O)c1c(O)c3c(c(O)c1C2=O)C[C@@](O)(C(=O)CO)C[C@@H]3O", 2.74],
  ["CNC(=O)Oc1cc(Cl)ccc1Cl", 2.44],
  ["COc1ccc(CN(CCN(C)C)c2ccccn2)cc1", 2.85],
  ["ONc1ccccc1", 0.79]
]}

The value of logP measured for the molecule `O=Cc1cccs1` turned out to be 1.02

`CC(=S)Nc1ccccc1` has a reported logP of 1.71

Sure, the documented logP for `CCc1ccco1` is 2.4

# logP of c1ccc(-c2ccc(C(c3ccccc3)n3ccnc3)cc2)cc1 (stereo not given) = 4.77

logP in this record for `CCCS` : 1.81

GET /value?item= `O=[N+]([O-])CCO` &field=logP returns -0.42

Entry `ICCCc1ccccc1` — recorded logP = 3.9

Per the records, this molecule ( `COP(=O)(CC(C)=O)OC` ) has logP equal to 0.86

====

- measurement protocol: method code SF, from Hansch, C. & Leo, A. (1987). Log P database [Dataset]. Pomona College Medicinal Chemistry Project.
- setup conditions: pH 12.3
Measured logD values are reported for all entries that follow.
Please give the numeric answer without any surrounding text.

{"columns": ["compound", "value reported"],
 "data": [
  ["CCCC1CNC(C(=O)NC(C(C)Br)C2OC(SC)C(O)C(O)C2O)C1 (stereo not drawn)", 1.77],
  ["CCCC1CNC(C(=O)NC(C(C)O)C2OC(SC)C(O)C(O)C2O)C1 (stereo not drawn)", 0.04]
]}

Now consider the entry below.
The compound identified as `CCC[C@H]1CN[C@H](C(=O)N[C@@H]([C@H]2O[C@H](SC)[C@H](O)[C@@H](O)[C@H]2O)[C@H](C)Cl)C1` registered its logD at 1.69

====

- measurement protocol: method code SF, from Hansch, C. & Leo, A. (1987). Log P database [Dataset]. Pomona College Medicinal Chemistry Project.
Each entry gets n if its logP stays under 2, and y if its logP is 2 or above.

{"columns": ["molecule", "class label"],
 "data": [
  ["CN(Cc1ccccc1)/N=N/c1ccc(C#N)cc1", "y"],
  ["O=C(NCC(O)CO)Nc1ccccc1 (stereo not given)", "n"],
  ["CC(C)(C)c1ccc(C(N)=O)cc1", "y"]
]}

Query: Is it the case that `O=C(CNC(=O)c1ccccc1)Oc1cccc(F)c1` has logP reaching or exceeding 2?
Response: y

====

The following compounds are shown together with reported logP values.
- measurement protocol: method code SF, from Hansch, C. & Leo, A. (1987). Log P database [Dataset]. Pomona College Medicinal Chemistry Project.
Lab note: write the figure by itself, no unit.

# example entries with known answers
{"columns": ["compound", "assay readout", "value reported"],
 "data": [
  ["C[C@@H]1C[C@H]2[C@@H]3C[C@H](F)C4=CC(=O)C(Cl)=C[C@]4(C)[C@@]3(F)[C@@H](O)C[C@]2(C)[C@@]1(O)C(=O)CO", "logP", 2.58],
  ["CCC1OC(=O)C(C)C(OC2CC(C)(OC)C(O)C(C)O2)C(C)C(OC2OC(C)CC(N(C)C)C2O)C2(C)CC(C)C3(OC(=O)OC(C3C)C1(C)O)O2 (configuration not stated)", "logP", 3.11],
  ["CCOc1ccccc1OC", "logP", 1.73],
  ["COc1ccccc1C(=O)N(C)C", "logP", 0.71]
]}

Reported logP ( `CCOCCOC(=O)C(C#N)=CC(C)(C)NCc1ccc(Cl)cc1` ) = 4.05

For `Cc1cccs1` the compound record lists logP as 2.33

Form field logP, entry `CCOP(=O)(OCC)SCn1nnc2ccccc2c1=O` : 1.63

The recorded logP for entry `C[C@@H]1CC[C@H](C)N1C(=O)Nc1ccccc1` equals 2.33

Record summary for `O=c1cc(-c2ccc(O)cc2)oc2ccccc12` : reported logP = 3.2

Just so you know, measured logP for `Nc1nc(=O)c2ccccc2o1` came out at 0.27

For `C[C@@H]1C[C@H]2[C@@H]3C[C@H](F)C4=CC(=O)C=C[C@]4(C)[C@@]3(F)[C@@H](O)C[C@]2(C)[C@@]1(O)C(=O)COC(=O)C(C)(C)C` the compound record lists logP as 3.86

// logP value for OC1OC[C@H](O)[C@H](O)[C@H]1O (some centres not stated) : -3.02

Record summary for O=C(c1ccco1)C(O)c1ccco1 (configuration not stated) : reported logP = 0.54

For reference, reported logP for `CC(C)Oc1ccccc1O` stands at 2.09

logP recorded for this compound, `O=NN(CCF)C(=O)NCCCl` , is 0.95

Notebook: `CC(=O)Nc1ccc2c(c1)S(=O)(=O)c1ccccc1C2=O` , logP read as 2.35

# logP of `CCOC(=O)C(Cc1ccccc1)C(=O)OCC` = 2.76

Just so you know, measured logP for `Cc1cccc([N+]([O-])=NC#N)c1` came out at 2.49

Looking up `C/C=C/C` , I see its logP listed as 2.31

Note to self: logP recorded for `CCCCCc1ccc(O)cc1` was 4.06

What the record says about `CNC(=O)C=Cc1ccccc1` : logP is 1.81

====

- measurement protocol: method code SF, from Hansch, C. & Leo, A. (1987). Log P database [Dataset]. Pomona College Medicinal Chemistry Project.
logP overview
Keep it simple and answer with nothing but the number.

{"columns": ["compound", "logP"],
 "data": [
  ["Cc1csc(N=C(N)N)n1", 1.24]
]}

For this compound ( `CC(C)(C)C` ), measured logP is 3.11

The compound listed as CCOP(=O)(N=C1SCC(C)S1)OCC (stereo not given) has a reported logP of 1.04

Please fill in: logP reported for Cc1ccccc1C(O)c1ccccc1 (stereo not given) = 3.06

For record CCCN(CCC)/N=C/c1c2c(O)c3c(O)c(C)c4c(c3c1O)C(=O)C(C)(O/C=C\C(OC)C(C)C(OC(C)=O)C(C)C(O)C(C)C(O)C(C)/C=C\C=C(C)C(=O)N2)O4 (stereo not given) the listed logP is 3.83

`CNC(=O)NC` yielded logP of -0.96

Lab note: CN(C)CCC1CN(C)C(=S)c2cccnc2O1 (stereo not given) gave logP of 1.08

Summary for this compound, `O=c1cncc[nH]1` : logP is -1.49

Source listed as the SangsterLogP compilation.
